Every entry's value here was drawn from patent US12509460B2.

Test system: MDR1 (P-gp)
Test: Blood-brain-barrier (BBB) penetration potential via MDCK-MDR1 permeability assay
Details: dog, MDCK-MDR1, pH 7.4, MDCK-MDR1: Papp B-A, B-A
Recorded measurements of Papp B→A at 120 min, 5 μM, one per entry
Numbers only; they are read as ×10⁻⁶ cm/s.

## Task Field request: Papp B→A at 120 min, 5 μM | item: CN(c1ccc(-c2cc3cnccc3cc2O)nn1)[C@H]1C[C@@H]2CCC[C@@H](N2)[C@H]1F [Compound 121B]
## Result 39.5

Others:
## Task Which Papp B→A at 120 min, 5 μM value belongs to Cc1nc2cc(-c3ccc(N(C)[C@@H]4C[C@H]5CC[C@H](N5)[C@@H]4F)nn3)c(O)cc2s1 [Compound 115A] ?
## Result 39.3

## Task Find the recorded Papp B→A at 120 min, 5 μM belonging to Cc1cc(=O)c2cc(-c3ccc(N(C)[C@@H]4C[C@H]5CC[C@@H]([C@@H]4F)N5C)nn3)c(O)cc2o1 [Compound 100A] and report it.
## Result 40.7
